- Tested on: Bacillus subtilis DB104 (SP-AmyQ fusion secretion)
- test_summary: AmyQ secretion efficiency, weighted average sort bin (1 = best secretion, 10 = worst) (bin number (weighted average, 1-10)); higher = lower secretion efficiency
1 (yes) means recorded AmyQ secretion efficiency is 4 or above; 0 (no) means it is below 4.

# sequence_entry, assay_target, class
data = [
    ("MNLRKTYSGRGYSLGMLVSAAPVLATSS", "Bacillus subtilis DB104 (SP-AmyQ fusion secretion)", "1 (yes)"),
    ("MKVCQKSIVRFLVSLIIGTFVISVPFMANARKR", "Bacillus subtilis DB104 (SP-AmyQ fusion secretion)", "0 (no)"),
    ("MKKIWIGMLAAAMVPKVSLADAA", "Bacillus subtilis DB104 (SP-AmyQ fusion secretion)", "1 (yes)"),
    ("MHLIRAAGAVCLAVVLIAGCRFIIVAIGAEGENT", "Bacillus subtilis DB104 (SP-AmyQ fusion secretion)", "1 (yes)"),
    ("MKKIVSILFMFGLVMKKKQFQPSTVFAADK", "Bacillus subtilis DB104 (SP-AmyQ fusion secretion)", "1 (yes)"),
    ("MKRIRIPMTLALGAALTIAPLSFAFTASAEEN", "Bacillus subtilis DB104 (SP-AmyQ fusion secretion)", "0 (no)"),
    ("MKKRKRRVVLVLSIAGIGGFSVHAASS", "Bacillus subtilis DB104 (SP-AmyQ fusion secretion)", "1 (yes)"),
    ("MKQTMIFLTSFMLLAMTGQTALAKDV", "Bacillus subtilis DB104 (SP-AmyQ fusion secretion)", "0 (no)"),
    ("MKKRLIGFLVLVPALIMSGITLIESNKK", "Bacillus subtilis DB104 (SP-AmyQ fusion secretion)", "1 (yes)"),
    ("MSKLLAAGIIGLLTVSIASPSFAAEK", "Bacillus subtilis DB104 (SP-AmyQ fusion secretion)", "0 (no)"),
    ("MSLITFSLIITSAIIIAIIAAVIVIAALITFNVRNASPG", "Bacillus subtilis DB104 (SP-AmyQ fusion secretion)", "1 (yes)"),
    ("MKKIGLLFMLCLAALFTIGFPAQQADAAED", "Bacillus subtilis DB104 (SP-AmyQ fusion secretion)", "0 (no)"),
    ("MLCVMMLLFSAIASFPVSAQSKDQ", "Bacillus subtilis DB104 (SP-AmyQ fusion secretion)", "1 (yes)"),
    ("MTKKAWFLPLVCVLLISGWLAPAASASRQTT", "Bacillus subtilis DB104 (SP-AmyQ fusion secretion)", "0 (no)"),
    ("MKRIRIPMTLALGAALTISFASAEEN", "Bacillus subtilis DB104 (SP-AmyQ fusion secretion)", "1 (yes)"),
    ("MKRLLVSLRVWMVFLMNWVTPDRKTSAAAVY", "Bacillus subtilis DB104 (SP-AmyQ fusion secretion)", "1 (yes)"),
    ("MRFTKVVGFLSVLGLAAVAQAEKA", "Bacillus subtilis DB104 (SP-AmyQ fusion secretion)", "1 (yes)"),
    ("MKFVKRRIIALVTILMLSVTSLFADEEEAKAAEH", "Bacillus subtilis DB104 (SP-AmyQ fusion secretion)", "0 (no)"),
    ("MKKWIYVVLVLSIAGIGGFSNHAASS", "Bacillus subtilis DB104 (SP-AmyQ fusion secretion)", "1 (yes)"),
    ("MPIKKKVMMCLAVTLVFGSMSFPTLTNDGGFKE", "Bacillus subtilis DB104 (SP-AmyQ fusion secretion)", "1 (yes)"),
    ("MRPVFPLILSAVLFLSCFFIAGATEASASKR", "Bacillus subtilis DB104 (SP-AmyQ fusion secretion)", "0 (no)"),
    ("MKKKLAAGLTASAIVGTTLVVTPAESATI", "Bacillus subtilis DB104 (SP-AmyQ fusion secretion)", "0 (no)"),
    ("MRKKRVITCVMAASLTLGSLLPAGYASAADD", "Bacillus subtilis DB104 (SP-AmyQ fusion secretion)", "1 (yes)"),
    ("MYKKFVPTYTKYFLFFVSFEMMENPHALDY", "Bacillus subtilis DB104 (SP-AmyQ fusion secretion)", "1 (yes)"),
    ("MKKIKKRKFMFGLVMGFSQFQPSTVFAADK", "Bacillus subtilis DB104 (SP-AmyQ fusion secretion)", "1 (yes)"),
    ("MKKWIYVRKKRSIAGIGGFSVHAASS", "Bacillus subtilis DB104 (SP-AmyQ fusion secretion)", "1 (yes)"),
    ("MKKRLIGFLVLVPALIMIEANKK", "Bacillus subtilis DB104 (SP-AmyQ fusion secretion)", "1 (yes)"),
    ("MNLRKIRKKRALSLGMLVSAAPVLATSS", "Bacillus subtilis DB104 (SP-AmyQ fusion secretion)", "1 (yes)"),
    ("MKRIRILALGAALTIAPLSFASAEEN", "Bacillus subtilis DB104 (SP-AmyQ fusion secretion)", "0 (no)"),
    ("MKRITINSNFSNIITMFIAAAVISLTGTAEAAEK", "Bacillus subtilis DB104 (SP-AmyQ fusion secretion)", "0 (no)"),
    ("MKQCQKSRKRRRQFLVSLIIGTFVISVPFMANAQSD", "Bacillus subtilis DB104 (SP-AmyQ fusion secretion)", "0 (no)"),
    ("MNLRKILLSSALSLGMLVSAAPGLATSS", "Bacillus subtilis DB104 (SP-AmyQ fusion secretion)", "0 (no)"),
    ("MRKTIFAFLTGLMMFGTITAASASPR", "Bacillus subtilis DB104 (SP-AmyQ fusion secretion)", "1 (yes)"),
    ("MKKRKRKILLSSALSFGMLISAVPALAAGT", "Bacillus subtilis DB104 (SP-AmyQ fusion secretion)", "0 (no)"),
    ("MNKFLKSNFRFRRKRKKGISLLASSNFIKASND", "Bacillus subtilis DB104 (SP-AmyQ fusion secretion)", "1 (yes)"),
    ("MFKFKKNGKSRRTAALMSISLFSATASAAST", "Bacillus subtilis DB104 (SP-AmyQ fusion secretion)", "1 (yes)"),
    ("MKVPKTMLLSTAAGLLLSLTATSVSAHYK", "Bacillus subtilis DB104 (SP-AmyQ fusion secretion)", "1 (yes)"),
    ("MNMSITYSLLALLAVVAFAFTDSSKAKAAEA", "Bacillus subtilis DB104 (SP-AmyQ fusion secretion)", "0 (no)"),
    ("MKKVLMAFIICLSLILSVLAAPPSGGKAESV", "Bacillus subtilis DB104 (SP-AmyQ fusion secretion)", "1 (yes)"),
    ("MKKAAAVLLSLGLVFGFSYGAGHVAEYKTK", "Bacillus subtilis DB104 (SP-AmyQ fusion secretion)", "1 (yes)"),
]

---

- Test system: Bacillus subtilis DB104 (SP-AmyQ fusion secretion)
- test_summary: AmyQ secretion efficiency, weighted average sort bin (1 = best secretion, 10 = worst) (bin number (weighted average, 1-10)); higher = lower secretion efficiency
YES means recorded AmyQ secretion efficiency is 6 or above; NO means it is below 6.

# sequence_entry, class
rows = [
    ("MTMKLKWLSFLLGFIILLFLFKYQFSNNDS", "YES"),
    ("MKSKGSIMIFIFACLILFSFTITTFINTETISAFSN", "YES"),
    ("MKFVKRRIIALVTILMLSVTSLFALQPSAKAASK", "NO"),
    ("MKSCKQLIVCSLAAILLLIPSVSFAAPD", "NO"),
    ("MPYLKRVLLLLVTGLFMSLFAVTATASTQTG", "NO"),
]

---

- Tested on: Bacillus subtilis DB104 (SP-AmyQ fusion secretion)
- test_summary: AmyQ secretion efficiency, weighted average sort bin (1 = best secretion, 10 = worst) (bin number (weighted average, 1-10)); higher = lower secretion efficiency

# sequence_entry, AmyQ secretion efficiency
rows = [
    ("MNKPTKLKKKKALAAGMTAAAAGGAGTIHAQQP", 8.12),
    ("MKRITINITIITMFIAAAVISLTGTAEAAEK", 2.69),
    ("MKKWIYVVLVLSIAGIGGFSVHWASS", 7.53),
    ("MKKVMLATALFLGLTPAGANAASK", 2.96),
    ("MKSKWMSGLLLVAVGFSFTQVMGHAGET", 5.88),
    ("MKKRLIAPMLLSAASLAFFAEEESAQAAAY", 2.27),
    ("MKKKLAAGLTASAIVGTTLVEDEEDAEAATI", 6.91),
    ("MFNRLFRVCFLAALIMAFTLPNSVYMQKP", 7.02),
    ("MKKLVLCVSILAVILSGVVLTQLS", 5.78),
    ("MKLKKRVSMFLVALTMCGGLFVTPCKAVKT", 2.35),
    ("MKRLLVSLRVWMPDRKTAAAAVY", 6.76),
    ("MKLAKRVSALTPSTTLAITNKAKEL", 7.12),
    ("MKKAFLVFLSVVVKQQESVAQAKQL", 7.51),
    ("MRSYIKVLTMCFLGLILFVPTNLADNS", 3.6),
    ("MKSKGSIMACLILFSFTITSTVSATTFINTETISAFSN", 6.02),
    ("MKRIRIPMTLALGAALTIAPLSFPSAEEN", 6.68),
    ("MLCVMMLLFSAIAVSFPVSAQAKDQ", 5.09),
    ("MRKKLKWLSFLLGFIILLFLFKYQASNNDS", 7.34),
]
